In this section, each of the compounds is paired with its reported pIC50.
Target: human recombinant ATX (Homo sapiens)
Test: Autotaxin (ATX) activity Quanta Red assay
Assay type: biochemical
Conditions: Table 2: additional compounds tested for ATX activity (Quanta Red Assay); read-out: Activity
For clarity, pIC50 is expressed as the negative log10 of concentration in mol/L.

Examples with their reported pIC50 follow.
COc1ccc(Cn2c(CCC(=O)NCc3ccc4c(c3)OCO4)nc3cccnc32)cc1 [Example 234]: 6.14
CSc1ccc(CCNC(=O)CCc2nc3cccnc3n2Cc2ccccc2)cc1 [Example 230]: 6.16

*Q* Fill in the blank: the reported pIC50 of Cc1ccc(CNC(=O)CCc2nc3cccnc3n2Cc2ccccc2)cc1 [Example 235] is ____.
*A* 6.20

*Q* Fill in the blank: the reported pIC50 of O=C(CCc1nc2cccnc2n1Cc1ccccc1)NCc1ccc(Cl)cc1 [Example 217] is ____.
*A* 7.54

*Q* Fill in the blank: the reported pIC50 of O=C(CCc1nc2cccnc2n1Cc1ccccc1)NCc1cccc(Cl)c1 [Example 232] is ____.
*A* 6.22

*Q* Fill in the blank: the reported pIC50 of COc1ccc(Cn2c(CCC(=O)NCc3ccc(C)cc3)nc3cccnc32)cc1 [Example 220] is ____.
*A* 6.90

*Q* Fill in the blank: the reported pIC50 of O=C(CCc1nc2cccnc2n1Cc1ccccc1)NCc1ccc(F)cc1 [Example 223] is ____.
*A* 6.49

*Q* Fill in the blank: the reported pIC50 of COc1ccc(CNC(=O)CCc2nc3cccnc3n2Cc2ccc(OC)cc2)cc1 [Example 222] is ____.
*A* 6.71

*Q* Fill in the blank: the reported pIC50 of CCOc1ccc(CCNC(=O)CCc2nc3cccnc3n2Cc2ccccc2)cc1 [Example 225] is ____.
*A* 6.15
